src = patent US20230263822A1

- Tested on: human Factor 11 mRNA
- Method: Dose-dependent inhibition of human Factor 11 in cyano primary hepatocytes, electroporation (Example 6)
- Type: cell-based
- Condition Details: 20 nM, ~16 hours
- Protocol: Cells were plated at a density of 35,000 cells per well and transfected via electroporation with 0.74 nM, 2.2 nM, 6.7 nM, 20 nM, 60 nM, and 180 nM concentrations of antisense oligonucleotide, as specified in Table 13. After a treatment period of approximately 16 hours, RNA was isolated from the cells and human Factor 11 mRNA levels were measured by quantitative real-time PCR. […] Factor 11 mRNA levels were adjusted according to total RNA content, as measured by RIBOGREEN. […]
# cutoff 40% applies to percent inhibition of human Factor 11 mRNA relative to untreated control cells; >= gives Y, < gives N

Substance: 416864 (antisense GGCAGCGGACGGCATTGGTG; 5-10-5 gapmer, further chemistry not given here) [compound 416864]
Answer Label: N

Substance: 416999 (antisense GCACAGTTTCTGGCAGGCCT; 2-13-5 gapmer chemistry, further chemistry not given here) [compound 416999]
Answer Label: Y

Substance: 416858 (antisense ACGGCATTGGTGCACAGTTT; 5-10-5 gapmer, further chemistry not given here) [compound 416858]
Answer Label: Y

Substance: 416826 (antisense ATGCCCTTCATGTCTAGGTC; 5-10-5 gapmer, further chemistry not given here) [compound 416826]
Answer Label: Y

Substance: 416892 (antisense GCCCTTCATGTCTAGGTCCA; 3-14-3 chimeric gapmer, further chemistry not given here) [compound 416892]
Answer Label: Y

Substance: 416925 (antisense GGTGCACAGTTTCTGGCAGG; 3-14-3 gapmer chemistry, further chemistry not given here) [compound 416925]
Answer Label: Y

Substance: 416850 (antisense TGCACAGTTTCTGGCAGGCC; 5-10-5 gapmer, further chemistry not given here) [compound 416850]
Answer Label: Y

Substance: 416838 (antisense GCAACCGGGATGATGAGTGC; 5-10-5 gapmer, further chemistry not given here) [compound 416838]
Answer Label: N

Substance: 417002 (antisense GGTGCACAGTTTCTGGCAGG; 2-13-5 gapmer chemistry, further chemistry not given here) [compound 417002]
Answer Label: N

Substance: 416825 (antisense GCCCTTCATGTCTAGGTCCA; 5-10-5 gapmer, further chemistry not given here) [compound 416825]
Answer Label: Y

====

- System: IL-1β, IL-6, IFN-γ, TNF-α, IL-8, MIP-1α, MCP-1, MIP-1β, RANTES
- Method: Cytokine and chemokine assays in cynomolgus monkeys (Example 46)
- Assay type: in vivo
- Condition Details: day-14 (before start of treatment)
- Procedure: Groups, each consisting of two male and two female monkeys, were injected subcutaneously with 25 mg/kg of ISIS 416850, ISIS 449709, ISIS 445522, ISIS 449710, ISIS 449707, ISIS 449711, ISIS 449708, 416858, and ISIS 445531. […] Body weights were taken 14 days and 7 days before the start of treatment and were then measured weekly throughout the treatment period. […]
Strand notation (5' to 3'): a small letter for the sugar, then the base; units joined by * are phosphorothioate-linked, units joined directly phosphodiester-linked; [ ] holds rarer units or linkages, { } end groups; capitals alone tell only the bases. e = 2'-O-(2-methoxyethyl) (MOE); [5mC] = 5-methylcytosine; d = 2'-deoxy (DNA)

Substance: ISIS 449707: 3-8-3, 4-8-4, 2-10-2, 3-10-3 or 4-10-4 MOE microwalk gapmer (Table 46) (antisense e[5mC]*eA*e[5mC]*eA*dG*dT*dT*dT*d[5mC]*dT*dG*dG*e[5mC]*eA*eG*eG)
MCP-1 level (pg/mL): 294
//
Substance: ISIS 416858: MOE gapmer, nucleobases 1275 to 1318 of SEQ ID NO: 1 (Table 8) (antisense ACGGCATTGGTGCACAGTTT; MOE gapmer, wing and gap sizes not given here)
MCP-1 level (pg/mL): 328

====

- Method: Hematology assays in cynomolgus monkeys (Example 45)
- Format: in vivo
- Condition Details: day 15

Substance: ISIS 416838: MOE gapmer, nucleobases 1018 to 1042 of SEQ ID NO: 1 (Table 6) (antisense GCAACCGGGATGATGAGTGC; MOE gapmer, wing and gap sizes not given here)
monocytes [%]: 2.4
--
Substance: ISIS 416850: MOE gapmer, nucleobases 1275 to 1318 of SEQ ID NO: 1 (Table 8) (antisense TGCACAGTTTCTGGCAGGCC; MOE gapmer, wing and gap sizes not given here)
monocytes [%]: 2.0
--
Substance: ISIS 416864: MOE gapmer, nucleobases 1275 to 1318 of SEQ ID NO: 1 (Table 8) (antisense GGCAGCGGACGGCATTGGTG; MOE gapmer, wing and gap sizes not given here)
monocytes [%]: 2.4
--
Substance: ISIS 417002: MOE gapmer, nucleobases 1275 to 1318 of SEQ ID NO: 1 (Table 8) (antisense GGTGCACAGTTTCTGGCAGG; MOE gapmer, wing and gap sizes not given here)
monocytes [%]: 2.3
--
Substance: ISIS 416858: MOE gapmer, nucleobases 1275 to 1318 of SEQ ID NO: 1 (Table 8) (antisense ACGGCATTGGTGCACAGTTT; MOE gapmer, wing and gap sizes not given here)
monocytes [%]: 2.2

====

- Tested on: Factor 11 activity
- Method: Factor 11 protein activity, F11 assay based on clotting time (Example 45)
- Type: in vivo, cynomolgus monkeys
- Condition Details: day 78; escalating dose regimen
// values below are reported percent inhibition of Factor 11 activity, relative to PBS control
Readout Name: percent inhibition of Factor 11 activity, relative to PBS control (%)

Substance: ISIS 416838: MOE gapmer, nucleobases 1018 to 1042 of SEQ ID NO: 1 (Table 6) (antisense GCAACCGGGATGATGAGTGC; MOE gapmer, wing and gap sizes not given here)
Result Number: 10

Substance: ISIS 416864: MOE gapmer, nucleobases 1275 to 1318 of SEQ ID NO: 1 (Table 8) (antisense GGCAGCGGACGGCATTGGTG; MOE gapmer, wing and gap sizes not given here)
Result Number: 9

Substance: ISIS 416858: MOE gapmer, nucleobases 1275 to 1318 of SEQ ID NO: 1 (Table 8) (antisense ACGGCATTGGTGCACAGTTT; MOE gapmer, wing and gap sizes not given here)
Result Number: 73

Substance: ISIS 416850: MOE gapmer, nucleobases 1275 to 1318 of SEQ ID NO: 1 (Table 8) (antisense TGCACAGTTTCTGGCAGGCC; MOE gapmer, wing and gap sizes not given here)
Result Number: 63

Substance: ISIS 417002: MOE gapmer, nucleobases 1275 to 1318 of SEQ ID NO: 1 (Table 8) (antisense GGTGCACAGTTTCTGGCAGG; MOE gapmer, wing and gap sizes not given here)
Result Number: 22

====

Listed next: entries and their corresponding aPTT ratio relative to PBS group.
- Tested on: blood coagulation
- Method: PT and aPTT assay in cynomolgus monkeys (Example 46)
- Assay type: in vivo
- Condition Details: Day 31; platelet poor plasma; relative to PBS group
- Experimental: Groups, each consisting of two male and two female monkeys, were injected subcutaneously with 25 mg/kg of ISIS 416850, ISIS 449709, ISIS 445522, ISIS 449710, ISIS 449707, ISIS 449711, ISIS 449708, 416858, and ISIS 445531. […] Body weights were taken 14 days and 7 days before the start of treatment and were then measured weekly throughout the treatment period. […] PT and aPTT were measured using platelet poor plasma (PPP) from […] treated with ISIS oligonucleotides. […]
Strand notation (5' to 3'): a small letter for the sugar, then the base; units joined by * are phosphorothioate-linked, units joined directly phosphodiester-linked; [ ] holds rarer units or linkages, { } end groups; capitals alone tell only the bases. e = 2'-O-(2-methoxyethyl) (MOE); [5mC] = 5-methylcytosine; d = 2'-deoxy (DNA)

Substance: ISIS 445522: 5-8-5 or 6-8-6 MOE microwalk gapmer (Table 44) (antisense eG*e[5mC]*eA*e[5mC]*eA*dG*dT*dT*dT*d[5mC]*dT*dG*dG*e[5mC]*eA*eG*eG*e[5mC])
aPTT ratio relative to PBS group: 1.25

Substance: ISIS 449708: 3-8-3, 4-8-4, 2-10-2, 3-10-3 or 4-10-4 MOE microwalk gapmer (Table 46) (antisense eA*e[5mC]*eA*dG*dT*dT*dT*d[5mC]*dT*dG*dG*e[5mC]*eA*eG)
aPTT ratio relative to PBS group: 1.09

Substance: ISIS 445531: 5-8-5 or 6-8-6 MOE microwalk gapmer (Table 44) (antisense eG*eG*e[5mC]*eA*eT*dT*dG*dG*dT*dG*d[5mC]*dA*d[5mC]*eA*eG*eT*eT*eT)
aPTT ratio relative to PBS group: 1.07

Substance: ISIS 416858: MOE gapmer, nucleobases 1275 to 1318 of SEQ ID NO: 1 (Table 8) (antisense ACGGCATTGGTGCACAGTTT; MOE gapmer, wing and gap sizes not given here)
aPTT ratio relative to PBS group: 1.32

Substance: ISIS 416850: MOE gapmer, nucleobases 1275 to 1318 of SEQ ID NO: 1 (Table 8) (antisense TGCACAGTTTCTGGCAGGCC; MOE gapmer, wing and gap sizes not given here)
aPTT ratio relative to PBS group: 1.22
